TARGET SYSTEM: Cynomologus monkey (cyno) proMMP9 (Cynomologus monkey)
ASSAY DETAILS: cell-based or functional assay
MEASUREMENT LABEL: Efficacy, MMP3/MMP9 gelatin assay
State the result as a value with its unit after it.

Any idea what its Efficacy, MMP3/MMP9 gelatin assay is? The binder is F20-VH-GL1-V4-V9/B08-VL-GL6c (antibody, human IgG4 S228P, V domains shown, The light chain constant region is not tied to it; also called F20-VH/B08-VLc variant; F20-VH/B08-VLc) VH: EVQLVESGGGLVQPGRSLRLSCAASGFTFNDYPMHWVRQAPGKGLEWVSGISSRSGSVGYAESVKGRFTISRDNAKNSLYLQMNSLRAEDTALYYCARDKIYYGSGSYDFYYYYGMDVWGQGTTVTVSS VL: QSALTQPASVSGSPGQSITISCTGTSNDVGAYNRVSWYQQHPGKAPKLMIYGVSNRPSGVSNRFSGSKSGNTASLTISGLQAEDEADFYCTSYSSSTTSYVVFGGGTKVTVL
100%
